study.target: cAMP and cAMP-inhibited cGMP 3',5'-cyclic phosphodiesterase 10A (Homo sapiens)
readout.label: IC50 (nM)

Recorded results for 5 molecules are shown here.
• Cn1ncc(C(=O)O)c1C(=O)Nc1ccc2cc(-c3ccccc3)nn2c1 [Roche-Dataset for PDE10A, Compound 377] = 19
• Cc1nc2ccccc2nc1CCc1nc(-c2ccccc2)cn1CC1CC1 [Roche-Dataset for PDE10A, Compound 62] = 9.29
• Cc1cnc(C)n2nc(/C=C/c3nc(N4CCCC4)nn3C3CC3)nc12 [Roche-Dataset for PDE10A, Compound 274] = 19
• Cc1ccc2nc(/C=C/c3nc(N4CCCC4)nn3C)nn2c1C [Roche-Dataset for PDE10A, Compound 375] = 8.73
• O=C(NCCC1CCCCC1)c1nc(C2CC2)cnc1Nc1cncnc1 [Roche-Dataset for PDE10A, Compound 901] = 1410

1: O=C(Nc1ccn(CC(F)(F)F)n1)c1nc(Cl)ccc1Nc1cncnc1 [Roche-Dataset for PDE10A, Compound 859]
2: Cn1ncc(C(=O)N2CCC2)c1C(=O)Nc1cc(C2CCC2)n[nH]1 [Roche-Dataset for PDE10A, Compound 1078]
3: O=C(Nc1ccc(O)c2c1CCCC2=O)c1nc(C2CC2)cnc1Nc1cncnc1 [Roche-Dataset for PDE10A, Compound 949]
4: CCOC(=O)c1cnn(C)c1C(=O)Nc1ccn2nc(N(C)C3CC3)nc2c1 [Roche-Dataset for PDE10A, Compound 486]
QUERY: Put the items in sequence by IC50, from largest down. Output spec: labels arranged per the requested ranking.
RESULT: 2, 1, 4, 3

a: O=C(Nc1ccn2nc(-c3ccccc3)nc2c1)c1ccc(Cl)cn1 [Roche-Dataset for PDE10A, Compound 778]
b: CNC(=O)c1cc2[nH]c(-c3ccccc3)nc2cc1NC(=O)c1cc(C)on1 [Roche-Dataset for PDE10A, Compound 557]
QUERY: Between a and b , whose measured IC50 reads higher? State the label of the item chosen.
RESULT: a
(a: 10000 nM, b: 189 nM)

A: Cn1cc(-c2ccccc2)nc1COc1cnc2cc(Cl)ccc2n1 [Roche-Dataset for PDE10A, Compound 598]
B: O=C(Nc1ccnc(Cl)n1)c1cn(-c2ccc3ccccc3n2)cn1 [Roche-Dataset for PDE10A, Compound 627]
C: O=C(NCc1ccc2c(c1)CCO2)c1nc(C2CC2)cnc1Nc1cncnc1 [Roche-Dataset for PDE10A, Compound 718]
D: CNC(=O)c1c(NC(=O)c2nc(C)c(C)nc2Nc2cncnc2)cnn1C [Roche-Dataset for PDE10A, Compound 1099]
QUERY: With regard to IC50, arrange the entries in ascending order, please. Output spec: labels arranged per the requested ranking.
RESULT: A, C, B, D

###

study.target: cAMP and cAMP-inhibited cGMP 3',5'-cyclic phosphodiesterase 10A (Homo sapiens, UniProt Q9Y233)
readout.label: IC50 (µM)

Recorded results for 3 molecules are shown here.
• CCOC(=O)c1cnn(C)c1C(=O)Nc1ccn2nc(N3CCCC3)nc2c1 [Roche-Dataset for PDE10A, Compound 353] = 0.021
• Cc1ncc(NC(=O)c2nc(C3CC3)cnc2Nc2cncnc2)c(C(=O)NCC(C)(C)O)n1 [US8703768, 281] = 0.00064
• O=C(Nc1nc(CN2CCCCC2)cs1)c1nc(C2CC2)cnc1Nc1cncnc1 [Roche-Dataset for PDE10A, Compound 832] = 0.032

P: O=C(Nc1ccc(-n2ccccc2=O)cc1)c1nc(C2CC2)ccc1Nc1cncnc1 [Roche-Dataset for PDE10A, Compound 545]
Q: O=C(Nc1cccc(C(=O)N2CCCC2)n1)c1nc(C2CC2)cnc1Nc1cncnc1 [Roche-Dataset for PDE10A, Compound 830]
QUERY: Between P and Q , whose measured IC50 reads higher? State the label of the item chosen.
RESULT: P
